Test: Metabolic stability in rat liver microsomes assessed as parent compound remaining at 0.5 uM measured after 10 mins in presence of NADPH by LC-MS/MS analysis
Format: ADME, Microsome
Settings: read-out: Stability
remaining at 10 min, 0.5 µM by entry:
# output: bare number, implied unit %

Reference set (3 entries):
Smiles	Unit string	Measured value
Cc1cc(C#N)ccc1Nc1nccc(C(=O)Nc2cnccc2-c2ccccc2)n1	%	46
O=C(Nc1cnccc1-c1ccccc1)c1ccnc(Nc2ccncc2)n1	%	60
O=C(Nc1cnccc1-c1ccc(F)cc1)c1ccnc(Nc2ccc(OC(F)F)cc2)n1	%	62

For reference, reported remaining at 10 min, 0.5 µM for O=C(Nc1cnccc1-c1ccccc1)c1ccnc(Nc2ccc(Cl)cc2)n1 stands at 70

For reference, reported remaining at 10 min, 0.5 µM for O=C(Nc1cnccc1-c1ccccc1)c1ccnc(Nc2ccc(OC(F)(F)F)cc2)n1 stands at 87

For reference, reported remaining at 10 min, 0.5 µM for O=C(Nc1cnccc1-c1ccc(F)cc1)c1ccnc(Nc2ccc(C(F)(F)F)cc2)n1 stands at 100

For reference, reported remaining at 10 min, 0.5 µM for O=C(Nc1cnccc1-c1ccccc1)c1ccnc(Nc2ccc(OC(F)F)cc2)n1 stands at 52

For reference, reported remaining at 10 min, 0.5 µM for Cc1ccc(Nc2nccc(C(=O)Nc3cnccc3-c3ccccc3)n2)cc1 stands at 1

For reference, reported remaining at 10 min, 0.5 µM for O=C(Nc1cnccc1-c1ccc(F)cc1)c1ccnc(Nc2ccc(F)cc2)n1 stands at 10

For reference, reported remaining at 10 min, 0.5 µM for O=C(Nc1cnccc1-c1ccccc1)c1ccnc(Nc2ccc(C(F)(F)F)cc2)n1 stands at 76

====

Test: Metabolic stability in rat liver microsomes assessed as parent compound remaining at 0.5 uM measured after 10 mins in presence of NADPH by LC-MS/MS analysis
Type: ADME, Microsome
Conditions: read-out: Stability
remaining at 10 min, 0.5 µM by entry:
# output: bare number, implied unit %

Reference set (5 entries):
Smiles	Measured value
CS(=O)(=O)c1ccc(Nc2nccc(C(=O)Nc3cnccc3-c3ccccc3)n2)cc1	85
O=C(Nc1cnccc1-c1ccccc1)c1ccnc(Nc2c(F)cc(Cl)cc2F)n1	13
N#Cc1ccc(Nc2nccc(C(=O)Nc3cnccc3OCC(F)(F)F)n2)cc1	82
N#Cc1ccc(Nc2nccc(C(=O)Nc3cnccc3-c3ccccc3)n2)cc1Cl	47
N#Cc1ccc(Nc2nccc(C(=O)Nc3cnccc3-c3ccc(F)cc3)n2)cc1	66

For reference, reported remaining at 10 min, 0.5 µM for O=C(Nc1cnccc1N1CCC(F)(F)CC1)c1ccnc(Nc2ccccc2)n1 stands at 0

For reference, reported remaining at 10 min, 0.5 µM for O=C(Nc1cnccc1OCC(F)(F)F)c1ccnc(Nc2ccccc2)n1 stands at 2

For reference, reported remaining at 10 min, 0.5 µM for COc1ccc(Nc2nccc(C(=O)Nc3cnccc3-c3ccccc3)n2)cc1F stands at 0.8

For reference, reported remaining at 10 min, 0.5 µM for O=C(Nc1cnccc1-c1ccccc1)c1ccnc(Nc2cccnc2)n1 stands at 28

For reference, reported remaining at 10 min, 0.5 µM for O=C(Nc1cnccc1-c1ccccc1)c1ccnc(Nc2ccccc2)n1 stands at 3

For reference, reported remaining at 10 min, 0.5 µM for N#Cc1ccc(Nc2nccc(C(=O)Nc3cncnc3OCC(F)(F)F)n2)cc1 stands at 61

For reference, reported remaining at 10 min, 0.5 µM for O=C(Nc1cnccc1-c1ccc(F)cc1)c1ccnc(Nc2ccc(Cl)cc2)n1 stands at 43

For reference, reported remaining at 10 min, 0.5 µM for O=C(Nc1cncnc1OCC(F)(F)F)c1ccnc(Nc2ccccc2)n1 stands at 8

For reference, reported remaining at 10 min, 0.5 µM for O=C(Nc1cnccc1OCC(F)(F)F)c1ccnc(Nc2ccc(C(F)(F)F)cc2)n1 stands at 82
